Please go through the items and note down their Substrate specificity (% 13α-HPOT), from kcat/Km.
tested on: Medicago truncatula hydroperoxide lyase CYP74C3 (HPLF), recombinant, wild type, N-terminal histidine-tagged; details: Detergent-free
Report the value in % with no unit label.

## Task // Input: CC/C=C\C[C@@H](/C=C/C=C\CCCCCCCC(=O)O)OO [13α-HPOT] . Output its Substrate specificity (% 13α-HPOT), from kcat/Km only.
## Result 100

## Task Let me know recorded Substrate specificity (% 13α-HPOT), from kcat/Km for CC/C=C\C/C=C\C=C\[C@H](CCCCCCCC(=O)O)OO [9α-HPOT] , thanks.
## Result 3

## Task Report Substrate specificity (% 13α-HPOT), from kcat/Km for CCCCC/C=C\C=C\[C@H](CCCCCCCC(=O)O)OO [9α-HPOD]
## Result 16

## Task Supply reported Substrate specificity (% 13α-HPOT), from kcat/Km belonging to this compound: CCCCC[C@@H](/C=C/C=C\CCCCCCCC(=O)O)OO [13α-HPOD]
## Result 19

---

test system: Medicago truncatula hydroperoxide lyase CYP74C3 (HPLF), recombinant, wild type, N-terminal histidine-tagged; conditions: Reactivated with 5 mM Emulphogene
So I've got a bunch of compounds here, and I need their Substrate specificity (% 13α-HPOT), from kcat/Km values.
Field: numeric (%). Do not append units.

## Task Kindly indicate its recorded Substrate specificity (% 13α-HPOT), from kcat/Km. Item: CC/C=C\C/C=C\C=C\[C@H](CCCCCCCC(=O)O)OO
## Result 0.4

## Task Report Substrate specificity (% 13α-HPOT), from kcat/Km, nothing else, for this compound: CCCCC[C@@H](/C=C/C=C\CCCCCCCC(=O)O)OO
## Result 22

## Task Indicate the recorded Substrate specificity (% 13α-HPOT), from kcat/Km value for this compound: CCCCC/C=C\C=C\[C@H](CCCCCCCC(=O)O)OO
## Result 5

## Task Indicate the recorded Substrate specificity (% 13α-HPOT), from kcat/Km value for this compound: CC/C=C\C[C@@H](/C=C/C=C\CCCCCCCC(=O)O)OO
## Result 100

---

system: Medicago truncatula hydroperoxide lyase CYP74C3 (HPLF), recombinant, wild type, N-terminal histidine-tagged; conditions: Detergent-free, pH 6.5, 25° C.
endpoint label: kcat

## Task Read off the recorded kcat for CCCCC/C=C\C=C\[C@H](CCCCCCCC(=O)O)OO
## Result 44 ± 2 s⁻¹

## Task For the compound CCCCC[C@@H](/C=C/C=C\CCCCCCCC(=O)O)OO , report kcat.
## Result 59 ± 3 s⁻¹

## Task Recall and state the measured kcat for CC/C=C\C[C@@H](/C=C/C=C\CCCCCCCC(=O)O)OO .
## Result 68 ± 5 s⁻¹

## Task Identify measured kcat corresponding to CC/C=C\C/C=C\C=C\[C@H](CCCCCCCC(=O)O)OO
## Result 8 ± 0 s⁻¹

---

system: Medicago truncatula hydroperoxide lyase CYP74C3 (HPLF), recombinant, wild type, N-terminal histidine-tagged; conditions: detergent-buffer vs detergent-free
endpoint label: Km / affinity, fold change on detergent removal (Km higher) (fold)
API: value field is a number in fold; no unit string.

## Task Fill in reported Km / affinity, fold change on detergent removal (Km higher) for this entry: CC/C=C\C[C@@H](/C=C/C=C\CCCCCCCC(=O)O)OO
## Result 6

## Task Given the compound CCCCC/C=C\C=C\[C@H](CCCCCCCC(=O)O)OO , write its reported Km / affinity, fold change on detergent removal (Km higher).
## Result 6

## Task Give the value of Km / affinity, fold change on detergent removal (Km higher) reported for the following: CC/C=C\C/C=C\C=C\[C@H](CCCCCCCC(=O)O)OO
## Result 2

## Task Please look at this compound and report its Km / affinity, fold change on detergent removal (Km higher): CCCCC[C@@H](/C=C/C=C\CCCCCCCC(=O)O)OO
## Result 10

Values from patent US20100035311A1
